The entries below come with measured inhibition at 0.3 µM values attached.
# Tested System: human recombinant histamine H2 receptor (Homo sapiens)
# Construct: expressed in transfected cells; host or cells: CHO-K1 cells
# Sequence (P25021 whole entry): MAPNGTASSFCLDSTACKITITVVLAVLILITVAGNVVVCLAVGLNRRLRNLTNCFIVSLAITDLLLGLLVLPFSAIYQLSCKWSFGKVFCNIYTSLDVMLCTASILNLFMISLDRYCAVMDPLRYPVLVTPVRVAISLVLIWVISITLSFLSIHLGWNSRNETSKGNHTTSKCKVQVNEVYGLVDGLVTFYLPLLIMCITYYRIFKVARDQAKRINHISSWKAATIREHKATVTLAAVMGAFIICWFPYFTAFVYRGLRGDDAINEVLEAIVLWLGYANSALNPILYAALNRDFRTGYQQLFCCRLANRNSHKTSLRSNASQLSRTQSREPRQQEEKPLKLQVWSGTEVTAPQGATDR
# Procedure Details: Histamine H2 radioligand binding ([125I]Aminopotentidine)
# Cond: 0.3 μM compound; 0.1 nM [125I]Aminopotentidine; read-out: Histamine Binding H2, percent inhibition of specific binding
Report only the number, with the unit % understood.

Problem: Entry Cc1ccc(C(O)Cn2c3c(c4cc(C)ccc42)CN(C)CC3)cc1 (racemic) has what inhibition at 0.3 µM?
Result: 40

Problem: Entry Cc1ccc2c(c1)c1c(n2CCc2ccc(Cl)cc2)CCN(C)C1 has what inhibition at 0.3 µM?
Result: 99

Problem: Entry CCN1CCc2c(c3cc(C)ccc3n2CC(O)c2ccc(C)cc2)C1 (racemic) has what inhibition at 0.3 µM?
Result: 27
